Overview of recorded Inhibition for various compounds
System: Plasmodium falciparum
protocolNotes: GSK_TCMDC: Inhibition of Plasmodium falciparum 3D7 in whole red blood cells, using parasite LDH activity as an index of growth. Test compounds present at 2uM
Type: functional
Remember to put the unit after the number in your answer.

See these solved cases before continuing.
- Cl.O=C(OCC1CCN(Cc2ccccc2)C1)c1ccc(Cl)cc1 (centres undefined): 100%
- Br.Oc1cccc2c1CC(NCc1ccccc1)CC2 (centres undefined): 90%
- O=C(O)C(F)(F)F.O=S(=O)(NCCN1CCCC1)c1ccc(-c2ccc(CNCc3ccc(F)cc3)cc2)cc1F: 82%
- c1ccc(C(c2ccccc2)N2CCN(C(c3cccnc3)c3nnnn3C3CCCC3)CC2)cc1 (centres undefined): 83%
- O=C(O)C(F)(F)F.O=C1CCCN1CCCNCc1cccc(-c2ccc(-c3nc4cc(C(F)(F)F)ccc4[nH]3)s2)c1: 100%
- CCCCN1C(=O)C2CC(=O)CC(C3CCCCC3)C2C1=O (centres undefined): 97%
- Cc1cc2c(cc1C(F)(F)F)N(C(=O)Nc1cc(OCCN(C)C)cc(C(F)(F)F)c1)CC2.Cl: 100%
- O=C(Nc1cc(Cl)ccc1-n1cncn1)C1(c2ccccc2)CC1: 98%

Q: Requested field: Inhibition. Item: CC(O)C1CCCCN1C(=O)c1cccc(-c2cccc(-c3nc4cc(C(F)(F)F)ccc4[nH]3)c2)c1 (centres undefined)
A: 100%

Recorded values, source ChEMBL document CHEMBL1157539.
